Read-out: Potassium channel subfamily K member 1 (KCNK1), KCNK1 (gene 3775)
Assay: LTEA_HepaRG_KCNK1: Life Technologies and Expression Analysis (LTEA) Assay for Potassium channel subfamily K member 1 (KCNK1) using HepaRG (AID 2283511)
Conditions: mRNA level, 48 h; actives raise or lower the signal
Activity calls are given as the source filed them. Rule for the calls: active = hit-call score of the fitted dose curve at least 0.9, where 1 is the maximum; inactive = score below 0.9.
Would you mind answering with one of these outcomes? T = active, F = inactive

Problem: Recorded test outcome, item C=CC1(C)OC(=O)N(c2cc(Cl)cc(Cl)c2)C1=O (configuration not stated)
Result: F

Problem: Recorded test outcome, item N#Cc1nn(-c2c(Cl)cc(C(F)(F)F)cc2Cl)c(N)c1S(=O)C(F)(F)F (configuration not stated)
Result: F

Problem: Recorded test outcome, item CCCCC(CC)COC(=O)c1ccccc1C(=O)OCC(CC)CCCC (configuration not stated)
Result: F

Problem: Recorded test outcome, item C#CCOS(=O)OC1CCCCC1Oc1ccc(C(C)(C)C)cc1 (configuration not stated)
Result: T

Problem: Recorded test outcome, item COP(=S)(OC)Oc1nc(Cl)c(Cl)cc1Cl
Result: F

Problem: Recorded test outcome, item CC1=C(C(=O)Nc2ccccc2)SCCO1
Result: F

Problem: Recorded test outcome, item Oc1ccccc1-c1ccccc1
Result: F

Problem: Recorded test outcome, item COC(=O)C=C(C)OP(=O)(OC)OC
Result: F

Problem: Recorded test outcome, item CCOc1cc(Oc2ccc(C(F)(F)F)cc2Cl)ccc1[N+](=O)[O-]
Result: T

Problem: Recorded test outcome, item COc1ccc(C(c2ccc(OC)cc2)C(Cl)(Cl)Cl)cc1
Result: F

Problem: Recorded test outcome, item CC1COC(Cn2cncn2)(c2ccc(Oc3ccc(Cl)cc3)cc2Cl)O1 (configuration not stated)
Result: T

Problem: Recorded test outcome, item COP(N)(=O)SC (configuration not stated)
Result: F

----------
Assay: IUF_NPC2b_neuronal_migration_120hr: Leibniz Research Institute for Environmental Medicine (IUF) 120-hour Neural Progenitor Cell Migration Assay for Neuron Migration (NPC2b) (AID 2284300)
Active and inactive are the calls of the source. Rule for the calls: active = hit-call score of the fitted dose curve at least 0.9, where 1 is the maximum; inactive = score below 0.9.
Would you mind answering with one of these outcomes? true (active), false (inactive)

[
  {
    "smilesStructure": "Cc1ccc(-c2c(Cl)nc(C#N)n2S(=O)(=O)N(C)C)cc1",
    "classification": "true"
  },
  {
    "smilesStructure": "COC(=O)N(OC)c1ccccc1COc1ccn(-c2ccc(Cl)cc2)n1",
    "classification": "false"
  },
  {
    "smilesStructure": "CO/C=C(/C(=O)OC)c1ccccc1Oc1cc(Oc2ccccc2C#N)ncn1",
    "classification": "false"
  },
  {
    "smilesStructure": "CNC(=O)ON=CC(C)(C)SC",
    "classification": "false"
  },
  {
    "smilesStructure": "CCOc1cc(Oc2ccc(C(F)(F)F)cc2Cl)ccc1[N+](=O)[O-]",
    "classification": "false"
  }
]

Continue with the next compound.
Problem: Recorded test outcome, item CCCCOC(=O)c1ccccc1C(=O)OCCCC
Result: false

----------
Test system: zebrafish Estrogen Receptor (ER2a), gene 317734
Assay: ATG_zfER2a_XSP2: Attagene TRANS-FACTORIAL Multi-Species (XSP2) HepG2 Assay for zebrafish Estrogen Receptor (ER2a) (AID 2283818);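 note: hits raise reporter mRNA so AC50 reflects activation of zebrafish ER2a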
Records with an inconclusive call do not appear. Activity calls are given as the source filed them. Rule for the calls: active = hit-call score of the fitted dose curve at least 0.9, where 1 is the maximum; inconclusive = response in the unintended direction; inactive = score below 0.9.
Would you mind answering with one of these outcomes? 1.0 (active), 0.0 (inactive)

Some entries whose results are on file:
[
  {
    "compound": "CON(C)C(=O)Nc1ccc(Cl)c(Cl)c1",
    "classification": 0.0
  },
  {
    "compound": "C=CC1(C)OC(=O)N(c2cc(Cl)cc(Cl)c2)C1=O (configuration not stated)",
    "classification": 0.0
  },
  {
    "compound": "CCOP(=S)(OCC)SCn1c(=O)oc2cc(Cl)ccc21",
    "classification": 0.0
  }
]

Problem: Recorded test outcome, item OC(c1ccc(Cl)cc1)(c1cncnc1)c1ccccc1Cl (configuration not stated)
Result: 1.0

Problem: Recorded test outcome, item C#CCOS(=O)OC1CCCCC1Oc1ccc(C(C)(C)C)cc1 (configuration not stated)
Result: 1.0

Problem: Recorded test outcome, item CC(C)(C)c1ccc(CSc2cnn(C(C)(C)C)c(=O)c2Cl)cc1
Result: 0.0

Problem: Recorded test outcome, item COc1ccc(C(c2ccc(OC)cc2)C(Cl)(Cl)Cl)cc1
Result: 0.0

----------
Experiment: CCTE_Shafer_MEA_dev_per_network_spike_spike_number_mean: CCTE's Neural Network Formation Assay for Mean Number of Spikes in a Network Spike, Shafer Lab (AID 2284053)
Active and inactive are the calls of the source. How the source made its calls: active means hit-call score of the fitted dose curve at least 0.9, where 1 is the maximum; inactive means score below 0.9.
Would you mind answering with one of these outcomes? T (active), F (inactive)

Some entries whose results are on file:
[
  {
    "compound": "COP(=S)(OC)Oc1nc(Cl)c(Cl)cc1Cl",
    "classification": "F"
  },
  {
    "compound": "N#Cc1nn(-c2c(Cl)cc(C(F)(F)F)cc2Cl)c(N)c1S(=O)C(F)(F)F (configuration not stated)",
    "classification": "F"
  },
  {
    "compound": "CN(C)C(=S)SSC(=S)N(C)C",
    "classification": "T"
  },
  {
    "compound": "CCCCOC(=O)c1ccccc1C(=O)OCCCC",
    "classification": "T"
  },
  {
    "compound": "COP(N)(=O)SC (configuration not stated)",
    "classification": "F"
  },
  {
    "compound": "COc1ccc(C(c2ccc(OC)cc2)C(Cl)(Cl)Cl)cc1",
    "classification": "T"
  }
]

Continue with the next compound.
Problem: Recorded test outcome, item CCOc1cc(Oc2ccc(C(F)(F)F)cc2Cl)ccc1[N+](=O)[O-]
Result: T

----------
Molecular target: Estrogen receptor (Homo sapiens) (UniProt P03372)
Sequence (P03372 whole entry, looked up): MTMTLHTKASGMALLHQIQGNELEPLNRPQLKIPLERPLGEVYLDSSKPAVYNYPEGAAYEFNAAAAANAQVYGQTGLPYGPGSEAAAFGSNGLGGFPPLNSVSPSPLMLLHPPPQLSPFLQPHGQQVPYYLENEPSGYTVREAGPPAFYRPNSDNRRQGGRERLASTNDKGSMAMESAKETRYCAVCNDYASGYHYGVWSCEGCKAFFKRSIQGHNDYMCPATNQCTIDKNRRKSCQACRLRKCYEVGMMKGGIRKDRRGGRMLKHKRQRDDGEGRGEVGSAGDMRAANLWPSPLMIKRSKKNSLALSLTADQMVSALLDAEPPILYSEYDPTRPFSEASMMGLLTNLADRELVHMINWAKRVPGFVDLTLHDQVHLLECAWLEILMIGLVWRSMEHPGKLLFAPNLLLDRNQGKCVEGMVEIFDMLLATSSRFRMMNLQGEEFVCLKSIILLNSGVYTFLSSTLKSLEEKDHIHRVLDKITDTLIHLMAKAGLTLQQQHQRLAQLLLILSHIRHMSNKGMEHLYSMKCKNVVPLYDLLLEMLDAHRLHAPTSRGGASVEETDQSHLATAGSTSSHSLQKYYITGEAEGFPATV
Test: OT_ERa_GFPERaERE_0120: Odyssey Thera (OT) 2-hour HeLa Transcription Induction Assay for Estrogen Receptor (AID 2283382)
The source made the active and inactive calls. The calls were made as follows: active = hit-call score of the fitted dose curve at least 0.9, where 1 is the maximum; inconclusive = response in the unintended direction; inactive = score below 0.9.
measurementType: outcome

Illustrative cases are given below, each with its answer.
[
  {
    "compound": "C=CCC1=C(C)[C@@H](OC(=O)[C@@H]2[C@@H](C=C(C)C)C2(C)C)CC1=O",
    "measurementType": "outcome",
    "result": "inactive"
  },
  {
    "compound": "Fc1ccc(Oc2ccnc3cc(Cl)cc(Cl)c23)cc1",
    "measurementType": "outcome",
    "result": "inactive"
  },
  {
    "compound": "Cc1cc(Cl)ccc1OCC(=O)O",
    "measurementType": "outcome",
    "result": "inactive"
  },
  {
    "compound": "CON(C)C(=O)Nc1ccc(Cl)c(Cl)c1",
    "measurementType": "outcome",
    "result": "inactive"
  }
]

Problem: Specify reported outcome for the compound shown: CS/C(C)=N/OC(=O)N(C)SN(C)C(=O)O/N=C(\C)SC
Result: inactive

Problem: Specify reported outcome for the compound shown: N#Cc1nn(-c2c(Cl)cc(C(F)(F)F)cc2Cl)c(N)c1S(=O)C(F)(F)F (configuration not stated)
Result: inactive

Problem: Specify reported outcome for the compound shown: CO/C=C(/C(=O)OC)c1ccccc1Oc1cc(Oc2ccccc2C#N)ncn1
Result: inactive

Problem: Specify reported outcome for the compound shown: COc1nc(NC(C)C)nc(NC(C)C)n1
Result: inactive

Problem: Specify reported outcome for the compound shown: CNC(=S)S
Result: inactive

----------
Read-out: Macrophage colony-stimulating factor (MCSF), CSF1 (gene 1435)
Assay: BSK_hDFCGF_MCSF: BioMAP Diversity Plus: hDFCGF Assay for Macrophage colony-stimulating factor (MCSF) Biomarker Activity (AID 2283060)
Details: primary human foreskin fibroblasts; actives raise or lower the signal
Calls of active or inactive are those of the source. The calls were made as follows: active = hit-call score of the fitted dose curve at least 0.9, where 1 is the maximum; inactive = score below 0.9.
Would you mind answering with one of these outcomes? active, inactive

Some entries whose results are on file:
[
  {
    "compound": "CCNc1nc(Cl)nc(NC(C)C)n1",
    "classification": "inactive"
  },
  {
    "compound": "CC(Oc1ccc(Cl)cc1Cl)C(=O)O (stereo unspecified)",
    "classification": "inactive"
  },
  {
    "compound": "COC(=O)c1ccccc1C(=O)OC",
    "classification": "inactive"
  },
  {
    "compound": "CCc1nn(C)c(C(=O)NCc2ccc(C(C)(C)C)cc2)c1Cl",
    "classification": "active"
  },
  {
    "compound": "C=CC1(C)OC(=O)N(c2cc(Cl)cc(Cl)c2)C1=O (stereo unspecified)",
    "classification": "inactive"
  }
]

Problem: Recorded test outcome, item Cc1c(F)c(F)c(COC(=O)C2C(/C=C(\Cl)C(F)(F)F)C2(C)C)c(F)c1F (stereo unspecified)
Result: active

Problem: Recorded test outcome, item CC(C)Oc1cc(-n2nc(C(C)(C)C)oc2=O)c(Cl)cc1Cl
Result: active

Problem: Recorded test outcome, item CCNc1nc(Cl)nc(NCC)n1
Result: inactive
